assay: log P by HPLC on reversed-phase column (EEC directive 79/831 Annex V.A8); type: physicochemical; conditions: HPLC on reversed-phase column (footnote a)
What log p was measured for each of the following?
One number for each entry.

# annotated cases, reported log p shown
N#Cc1ccc[n+]2c(C(=O)CCl)c([O-])n(Cc3ccc(Cl)nc3)c12 : 1.78
O=C(Cn1cccn1)c1c([O-])n(Cc2ccc(Cl)nc2)c2ccc(F)c[n+]12 : 1.53
CSCC(=O)c1c([O-])n(Cc2cnc(Cl)s2)c2cccc[n+]12 : 1.73
COCC(=O)c1c([O-])n(Cc2ccc(Cl)nc2)c2ccc(C)c[n+]12 : 1.48
CC(=O)N(C)CC(=O)c1c([O-])n(Cc2cnc(Cl)s2)c2cccc[n+]12 : 1.18

# batch: return log p for each of the 8 compounds below
1. CSc1cnn(CC(=O)c2c([O-])n(Cc3cnc(Cl)s3)c3cccc[n+]23)c1
2. CCOCC(=O)c1c([O-])n(Cc2ccc(Cl)nc2)c2cccc[n+]12
3. CSCC(=O)c1c([O-])n(Cc2cncnc2)c2cccc[n+]12
4. O=C(NC1CC1)c1c([O-])n(Cc2ccc(Cl)nc2)c2ccc(F)c[n+]12
5. O=C(COc1ccc(F)cc1)c1c([O-])n(Cc2ccc(Cl)nc2)c2cccc[n+]12
6. O=C(COc1ccccn1)c1c([O-])n(Cc2cnc(Cl)s2)c2cccc[n+]12
7. COC(=O)c1c([O-])n(Cc2cncc(Cl)c2)c2cccc[n+]12
8. O=C(Cn1cc(C(F)(F)F)cn1)c1c([O-])n(Cc2cnc(Cl)s2)c2cccc[n+]12

Given back:
1: 1.97; 2: 1.39; 3: 0.79; 4: 1.79; 5: 2.27; 6: 1.32; 7: 1.15; 8: 2.37

Report log p for each item below.
1. COCC(=O)c1c([O-])n(Cc2cnc(Cl)s2)c2ccc(C)c[n+]12
2. COCC(=O)c1c([O-])n(Cc2ccc(Cl)nc2)c2cccc[n+]12
3. O=C(Cn1ccnc1Cl)c1c([O-])n(Cc2cnc(Cl)s2)c2cccc[n+]12
4. Cc1ccc[n+]2c(C(=O)Nc3ccc(Cl)cc3)c([O-])n(Cc3ccc(Cl)nc3)c12
5. O=C(CCl)c1c([O-])n(Cc2ccc(Cl)nc2)c2ccc(F)c[n+]12
6. O=C(COCc1ccc(F)cc1)c1c([O-])n(Cc2cnc(Cl)s2)c2cccc[n+]12
7. COCC(=O)c1c([O-])n(Cc2cncc(Cl)c2)c2cccc[n+]12
8. O=C(Nc1ccc(Cl)nc1)c1c([O-])n(Cc2cnc(Cl)s2)c2cccc[n+]12 [Example I-1-146]

Given back:
1. 1.52
2. 1.18
3. 1.44
4. 3.41
5. 1.78
6. 2.41
7. 1.15
8. 2.55

Go through the items and report each one's log p.
1. Cc1cccc2n(Cc3ccc(Cl)nc3)c([O-])c(C(=O)Cn3cccn3)[n+]12
2. CCOCC(=O)c1c([O-])n(Cc2cnc(Cl)s2)c2c(C)ccc[n+]12
3. O=C(COc1ccc(Cl)nc1)c1c([O-])n(Cc2cnc(Cl)s2)c2cccc[n+]12
4. O=C(COc1cccc(Cl)c1)c1c([O-])n(Cc2cnc(Cl)s2)c2cccc[n+]12
5. COCC(=O)c1c([O-])n(Cc2cnc(OC)s2)c2ccc(C)c[n+]12
6. Cn1nccc1OCC(=O)c1c([O-])n(Cc2cnc(Cl)s2)c2cccc[n+]12
7. O=C(C[S+]([O-])Cc1ccccc1)c1c([O-])n(Cc2cnc(Cl)s2)c2cccc[n+]12 (stereo not drawn)
8. CCOCC(=O)c1c([O-])n(Cc2cncc(Cl)c2)c2cccc[n+]12

Given back:
1. 1.47
2. 1.72
3. 2.17
4. 2.87
5. 1.35
6. 1.53
7. 1.72
8. 1.37

Okay, here is my list. What is log p for each of these?
1. CCOCC(=O)c1c([O-])n(Cc2cnc(Cl)s2)c2cccc[n+]12
2. O=C(NCC(F)(F)F)c1c([O-])n(Cc2cnc(Cl)s2)c2cccc[n+]12

Given back:
1.57
2.08

For each of the compounds below, state log p.
1. COCC(=O)c1c([O-])n(Cc2cncnc2)c2cccc[n+]12
2. CC(NC(=O)c1c([O-])n(Cc2cnc(Cl)s2)c2cccc[n+]12)c1ccc(Cl)cc1 (stereo not drawn)

Given back:
1: 0.4; 2: 3.13
